- assay_remarks: Rat liver microsome incubation
- Assay type: in vitro ADME
- applied_conditions: maximal achievable bioavailability (1−E), extrapolated from rat microsomal clearance
Values of Rat microsomes MAB % greater than or equal to 70% map to rule met; values below map to rule not met.

-- ask Is the recorded value of Rat microsomes MAB % equal to or greater than 70% for this molecule? `C=CCNC(=O)COC(=O)[C@H]1CCCN1C(=O)CCCCC(=O)N1CCC[C@@H]1C(=O)OCC(=O)NCC=C`
-- reply rule not met

-- ask Is the recorded value of Rat microsomes MAB % equal to or greater than 70% for this molecule? `CN(C)C(=O)COC(=O)[C@H]1CCCN1C(=O)CCCCC(=O)N1CCC[C@@H]1C(=O)OCC(=O)N(C)C`
-- reply rule met

-- ask Is the recorded value of Rat microsomes MAB % equal to or greater than 70% for this molecule? `CC(C)(C)NC(=O)COC(=O)[C@H]1CCCN1C(=O)CCCCC(=O)N1CCC[C@@H]1C(=O)OCC(=O)NC(C)(C)C`
-- reply rule not met

-- ask Is the recorded value of Rat microsomes MAB % equal to or greater than 70% for this molecule? `CCOC(=O)[C@H]1CCCN1C(=O)CCCCC(=O)N1CCC[C@@H]1C(=O)OCC`
-- reply rule not met

-- ask Is the recorded value of Rat microsomes MAB % equal to or greater than 70% for this molecule? `CCN(CC)C(=O)COC(=O)[C@H]1CCCN1C(=O)CCCCC(=O)N1CCC[C@@H]1C(=O)OCC(=O)N(CC)CC`
-- reply rule met

-- ask Is the recorded value of Rat microsomes MAB % equal to or greater than 70% for this molecule? `COC(=O)[C@H]1CCCN1C(=O)CCCCC(=O)N1CCC[C@@H]1C(=O)OC`
-- reply rule met

-- ask Is the recorded value of Rat microsomes MAB % equal to or greater than 70% for this molecule? `NC(=O)COC(=O)[C@H]1CCCN1C(=O)CCCCC(=O)N1CCC[C@@H]1C(=O)OCC(N)=O`
-- reply rule met

====

- assay_remarks: Stability of the prodrugs in plasma samples
- Assay type: in vitro ADME, rat
- applied_conditions: half-life (50% conversion of the prodrug), 10 μM, 37° C.
property_label: Rat plasma tl/2 hours (h)
Respond with the bare value in h.

Reported Rat plasma tl/2 hours ( `CCOC(=O)[C@H]1CCCN1C(=O)CCCCC(=O)N1CCC[C@@H]1C(=O)OCC` ) = 0.4

Reported Rat plasma tl/2 hours ( `CCN(CC)C(=O)COC(=O)[C@H]1CCCN1C(=O)CCCCC(=O)N1CCC[C@@H]1C(=O)OCC(=O)N(CC)CC` ) = 0.2

Reported Rat plasma tl/2 hours ( `CN(C)C(=O)COC(=O)[C@H]1CCCN1C(=O)CCCCC(=O)N1CCC[C@@H]1C(=O)OCC(=O)N(C)C` ) = 0.8

Reported Rat plasma tl/2 hours ( `NC(=O)COC(=O)[C@H]1CCCN1C(=O)CCCCC(=O)N1CCC[C@@H]1C(=O)OCC(N)=O` ) = 0.4

Reported Rat plasma tl/2 hours ( `COC(=O)[C@H]1CCCN1C(=O)CCCCC(=O)N1CCC[C@@H]1C(=O)OC` ) = 1.3

====

Assign Rat microsomes MAB % to each entry below.
- assay_remarks: Rat liver microsome incubation
- Format: in vitro ADME
- applied_conditions: maximal achievable bioavailability (1−E), extrapolated from rat microsomal clearance
Reply with the number and its unit after it.

Reported Rat microsomes MAB % ( `CCCOC(=O)[C@H]1CCCN1C(=O)CCCCC(=O)N1CCC[C@@H]1C(=O)OCCC` ) = 12%

Reported Rat microsomes MAB % ( `O=C(COC(=O)[C@H]1CCCN1C(=O)CCCCC(=O)N1CCC[C@@H]1C(=O)OCC(=O)NC1CC1)NC1CC1` ) = 50%

Reported Rat microsomes MAB % ( `CC(C)NC(=O)COC(=O)[C@H]1CCCN1C(=O)CCCCC(=O)N1CCC[C@@H]1C(=O)OCC(=O)NC(C)C` ) = 30%
